- System: 22Rv1 cells
- assay_comment: Cell-based assay, anti-proliferative activity (Cell Counting Kit-8, 72 hours)
- Parameters: species or system human
- condition_context: Homo sapiens, 22Rv1, 72 h, read-out: IC50 (μM) (22Rvl)
Structures can show the parent of a compound that is named as a salt.
Recorded IC50 by entry

compound: COc1c(Cl)cc(-c2ccc3ncc(C(C)=O)c(N[C@H]4CC[C@H](CN(C)C)CC4)c3n2)cc1Cl [Example 85, dihydrochloride]
IC50 (µM): 0.77
--
compound: CC(=O)c1cnc2ccc(-c3cc(F)c(O)c(Cl)c3)nc2c1Nc1ccc(N2CCCC(N)C2)nc1 (stereo not shown) [Example 65, trihydrochloride]
IC50 (µM): 0.013
--
compound: CN(C)[C@H]1CC[C@H](Nc2c(C(=O)C3CC3)cnc3ccc(-c4cc(Cl)c(O)c(Cl)c4)nc23)CC1 [Example 80, dihydrochloride]
IC50 (µM): 0.0052
--
compound: CC(=O)c1cnc2ccc(-c3cc(F)c(O)c(Cl)c3)nc2c1Nc1ccc(CN2CCN(C)CC2)cc1 [Example 35, trihydrochloride]
IC50 (µM): 0.65
--
compound: CC(=O)c1cnc2ccc(-c3cc(F)c(O)c(Cl)c3)nc2c1N[C@H]1CC[C@H](CCN(C)C)CC1 [Example 10, dihydrochloride]
IC50 (µM): 0.01
--
compound: CC(=O)c1cnc2ccc(-c3cc(Cl)c(O)c(Cl)c3)nc2c1NC[C@H]1CC[C@H](N(C)C)CC1 [Example 89, dihydrochloride]
IC50 (µM): 0.028
--
compound: CC(=O)c1cnc2ccc(-c3cc(F)c(O)c(Cl)c3)nc2c1NC1CCN(C)CC1
IC50 (µM): 0.14

* * *

- Tested on: 22Rv1 cells
- assay_comment: Cell-based assay, anti-proliferative activity (Cell Counting Kit-8, 72 hours)
- Set-up: species or system human
- condition_context: Homo sapiens, 22Rv1, 72 h, read-out: IC50 (μM) (22Rvl)
Counter-ions that a name gives are not always drawn.
endpoint: IC50 (µM)

molecule: COc1cc(-c2ccc3ncc(S(C)(=O)=O)c(Nc4ccc(CN(C)C)cc4)c3n2)cc(Cl)c1O [Example 18, dihydrochloride]
endpoint: IC50
recorded_number: 1
--
molecule: CC(=O)c1cnc2ccc(-c3cc(Cl)c(O)c(Cl)c3)nc2c1Nc1ccc(NCCN(C)C)nc1 [Example 38, trihydrochloride]
endpoint: IC50
recorded_number: 0.24
--
molecule: CN(C)C[C@H]1CC[C@H](Nc2c(C(=O)CO)cnc3ccc(-c4cc(Cl)c(O)c(Cl)c4)nc23)CC1 [Example 44, dihydrochloride]
endpoint: IC50
recorded_number: 0.006
--
molecule: CC(=O)c1cnc2ccc(-c3ccncc3)nc2c1N[C@H]1CC[C@H](CN(C)C)CC1 [Example 56, trihydrochloride]
endpoint: IC50
recorded_number: 0.86
--
molecule: CC(=O)c1cnc2ccc(-c3cc(Cl)c(O)c(Cl)c3)nc2c1N[C@H]1CC[C@H](NC(=O)[C@@H]2CCCN2)CC1 [Example 75, dihydrochloride]
endpoint: IC50
recorded_number: 0.099
--
molecule: COc1ccc(-c2ccc3ncc(C(C)=O)c(N[C@H]4CC[C@H](CN(C)C)CC4)c3n2)cc1 [Example 84, dihydrochloride]
endpoint: IC50
recorded_number: 0.58
--
molecule: CC(=O)c1cnc2ccc(-c3cc(Cl)c(O)c(Cl)c3)nc2c1Nc1cccc(CCN2CCCC2)c1 [Example 19, dihydrochloride]
endpoint: IC50
recorded_number: 0.63
--
molecule: CC(=O)c1cnc2ccc(-c3cc(Cl)c(O)c(Cl)c3)nc2c1N[C@H]1CC[C@H](CN2CCN(C)CC2)CC1 [Example 63, trihydrochloride]
endpoint: IC50
recorded_number: 0.025

* * *

- System: A549 cells
- assay_comment: Cell-based assay, anti-proliferative activity (Cell Counting Kit-8, 72 hours)
- Parameters: species or system human
- condition_context: Homo sapiens, A549, 72 h, read-out: IC50 (μM) (A549)
Where a name gives a salt, the structure may show the parent alone.
Classify by IC50. Ranges: low bracket = under 0.04 µM, middle bracket = from 0.04 µM up to 0.3 µM, high bracket = 0.3 µM and over

compound: [2H]C([2H])([2H])N(C[C@H]1CC[C@H](Nc2c(C(C)=O)cnc3ccc(-c4cc(Cl)c(O)c(Cl)c4)nc23)CC1)C([2H])([2H])[2H] [Example 28, dihydrochloride]
discrete_label: low bracket

compound: CC(=O)c1cnc2ccc(-c3cc(Cl)c(O)c(Cl)c3)nc2c1N[C@H]1CC[C@H](NC(=O)[C@@H]2CCCN2)CC1 [Example 75, dihydrochloride]
discrete_label: middle bracket

compound: COc1ccc(-c2ccc3ncc(C(C)=O)c(N[C@H]4CC[C@H](CN(C)C)CC4)c3n2)cc1 [Example 84, dihydrochloride]
discrete_label: high bracket

compound: CN(C)CCOc1ccc(Nc2c(S(C)(=O)=O)cnc3ccc(-c4cc(Cl)c(O)c(Cl)c4)nc23)cn1 [Example 24, hydrochloride]
discrete_label: high bracket

compound: CC(=O)c1cnc2ccc(-c3cc(Cl)c(O)c(Cl)c3)nc2c1Nc1ccc(CN2CCCC2)cc1 [Example 60, dihydrochloride]
discrete_label: middle bracket

compound: CC(=O)c1cnc2ccc(-c3ccc(O)cc3)nc2c1N[C@H]1CC[C@H](CN(C)C)CC1 [Example 88, dihydrochloride]
discrete_label: low bracket

compound: CN(C)[C@H]1CC[C@H](Nc2c(C(=O)C3CC3)cnc3ccc(-c4cc(Cl)c(O)c(Cl)c4)nc23)CC1 [Example 80, dihydrochloride]
discrete_label: low bracket

compound: CC(=O)c1cnc2ccc(-c3cc(Cl)c(O)c(Cl)c3)nc2c1N1CCC(CCN2CCCC2)CC1 [Example 36, dihydrochloride]
discrete_label: high bracket

compound: CC(=O)c1cnc2ccc(-c3cc(Cl)c(O)c(Cl)c3)nc2c1N[C@H]1CC[C@H](CN2CCNCC2)CC1 [Example 70, trihydrochloride]
discrete_label: middle bracket

compound: CC(C)C(=O)c1cnc2ccc(-c3cc(Cl)c(O)c(Cl)c3)nc2c1N[C@H]1CC[C@H](CN(C)C)CC1 [Example 216, dihydrochloride]
discrete_label: low bracket

compound: CC(=O)c1cnc2ccc(-c3cc(F)c(O)c(Cl)c3)nc2c1Nc1cccc(CCN2CCCC2)c1 [Example 20, dihydrochloride]
discrete_label: high bracket

compound: CC(=O)c1cnc2ccc(-c3cc(F)c(O)c(Cl)c3)nc2c1Nc1ccc(CCN(C)C)cc1 [Example 30, dihydrochloride]
discrete_label: middle bracket

compound: CC(=O)c1cnc2ccc(N3CCC(O)C3)nc2c1N[C@H]1CC[C@H](CN2CCC(O)C2)CC1 (some centres unmarked) [Example 77]
discrete_label: high bracket

compound: CC(=O)c1cnc2ccc(-c3cc(F)c(O)c(Cl)c3)nc2c1N[C@H]1CC[C@H](NC(=O)C(C)N)CC1 (some centres unmarked) [Example 74, dihydrochloride]
discrete_label: middle bracket

compound: CC(=O)c1cnc2ccc(-c3cc(F)c(O)c(Cl)c3)nc2c1Nc1ccc(OCCN(C)C)nc1 [Example 22, dihydrochloride]
discrete_label: middle bracket

compound: CCC(=O)c1cnc2ccc(-c3cc(Cl)c(O)c(Cl)c3)nc2c1Nc1ccc(N2CCC[C@@H](N)C2)nc1 [Example 214, trihydrochloride]
discrete_label: low bracket

compound: COc1c(Cl)cc(-c2ccc3ncc(C(C)=O)c(N[C@H]4CC[C@H](CN(C)C)CC4)c3n2)cc1Cl [Example 85, dihydrochloride]
discrete_label: high bracket

compound: CNC1CCN(c2ccc(Nc3c(C(C)=O)cnc4ccc(-c5cc(F)c(O)c(Cl)c5)nc34)cn2)C1 (centres unmarked) [Example 54, trihydrochloride]
discrete_label: middle bracket

compound: CC(=O)c1cnc2ccc(-c3cnc(C#N)nc3)nc2c1N[C@H]1CC[C@H](CN(C)C)CC1 [Example 57]
discrete_label: high bracket

compound: CC(=O)c1cnc2ccc(-c3cc(F)c(O)c(Cl)c3)nc2c1Nc1ccc(N2CCC[C@@H](N)C2)nc1 [Example 96]
discrete_label: low bracket

compound: COc1cc(-c2ccc3ncc(S(C)(=O)=O)c(Nc4ccc(CN(C)C)cc4)c3n2)cc(Cl)c1O [Example 18, dihydrochloride]
discrete_label: high bracket

compound: CC(=O)c1cnc2ccc(-c3ccncc3)nc2c1N[C@H]1CC[C@H](CN(C)C)CC1 [Example 56, trihydrochloride]
discrete_label: high bracket

compound: CC(=O)c1cnc2ccc(-c3cc(F)c(O)c(Cl)c3)nc2c1NC1CCN(C)CC1 [Example 46]
discrete_label: middle bracket

compound: CC(=O)c1cnc2ccc(-c3cc(F)c(O)c(Cl)c3)nc2c1N[C@H]1CC[C@H](CN(C)C)CC1 [Example 7, dihydrochloride]
discrete_label: low bracket

compound: CC(C)C(=O)c1cnc2ccc(-c3cc(F)c(O)c(Cl)c3)nc2c1N[C@H]1CC[C@H](CN(C)C)CC1 [Example 217, dihydrochloride]
discrete_label: low bracket

* * *

- System: A549 cells
- assay_comment: Cell-based assay, anti-proliferative activity (Cell Counting Kit-8, 72 hours)
- Parameters: species or system human
- condition_context: Homo sapiens, A549, 72 h, read-out: IC50 (μM) (A549)
Structures can show the parent of a compound that is named as a salt.
endpoint: log10 IC50 (log10 of the value in µM)

compound: CN(C)Cc1ccc(Nc2c(S(C)(=O)=O)cnc3ccc(-c4cc(Cl)c(O)c(Cl)c4)nc23)cc1 [Example 16, dihydrochloride]
log10 IC50: -0.33
--
compound: CC(=O)c1cnc2ccc(-c3cc(Cl)c(O)c(Cl)c3)nc2c1Nc1ccc(N2CCCC(N)C2)nc1 (stereo not drawn) [Example 64, trihydrochloride]
log10 IC50: -1.15
--
compound: CC(=O)c1cnc2ccc(-c3cc(F)c(O)c(Cl)c3)nc2c1Nc1ccc(N2CCC[C@H](N)C2)nc1 [Example 72, trihydrochloride]
log10 IC50: -1.33
--
compound: CC(=O)c1cnc2ccc(-c3cc(Cl)c(O)c(Cl)c3)nc2c1NC[C@H]1CC[C@H](N(C)C)CC1 [Example 89, dihydrochloride]
log10 IC50: -1.39
--
compound: N[C@@H]1CCCN(c2ccc(Nc3c(C(=O)C4CC4)cnc4ccc(-c5cc(Cl)c(O)c(Cl)c5)nc34)cn2)C1 [Example 201]
log10 IC50: -2.21
--
compound: CC(=O)c1cnc2ccc(-c3cc(F)c(O)c(Cl)c3)nc2c1N[C@H]1CC[C@H](N(C)C)CC1 [Example 3, dihydrochloride]
log10 IC50: -2.04
